- Test system: Polygonum convolvulus (POLCO)
- assay remarks: C. Herbicidal pre-emergence efficacy, POLCO
- Assay type: in vivo
- test conditions: 320 g/ha, scored after about 3 weeks
assay readout: Pre-emergence efficacy against POLCO (%)
The reply should contain only the number, in %.

State the recorded Pre-emergence efficacy against POLCO for this entry: CCCCS(=O)(=O)Oc1ccccc1Oc1ncc(Cl)cn1
90

State the recorded Pre-emergence efficacy against POLCO for this entry: O=S(=O)(CCC(F)(F)F)Oc1c(F)cccc1Oc1ncc(F)cn1
100

State the recorded Pre-emergence efficacy against POLCO for this entry: CC(C)CS(=O)(=O)Oc1ccccc1Oc1ncc(Cl)cn1
100

State the recorded Pre-emergence efficacy against POLCO for this entry: C=CCCS(=O)(=O)Oc1c(F)cccc1Oc1ncc(Cl)cn1
90

State the recorded Pre-emergence efficacy against POLCO for this entry: O=S(=O)(CCCC(F)F)Oc1c(F)cccc1Oc1ncc(Cl)cn1
100

State the recorded Pre-emergence efficacy against POLCO for this entry: O=S(=O)(CCC(F)(F)F)Oc1c(F)cccc1Oc1ncc(Cl)cn1
100

State the recorded Pre-emergence efficacy against POLCO for this entry: O=S(=O)(CCC(F)(F)F)Oc1c(F)cccc1Oc1ncc(Br)cn1
100

State the recorded Pre-emergence efficacy against POLCO for this entry: O=S(=O)(CCCC(F)(F)F)Oc1c(F)cccc1Oc1ncc(Cl)cn1
100

State the recorded Pre-emergence efficacy against POLCO for this entry: O=S(=O)(CCC1CC1)Oc1c(F)cccc1Oc1ncc(Cl)cn1
90

State the recorded Pre-emergence efficacy against POLCO for this entry: O=S(=O)(CCl)Oc1ccccc1Oc1ncc(Cl)cn1
90

State the recorded Pre-emergence efficacy against POLCO for this entry: O=S(=O)(CC1CC(F)(F)C1)Oc1c(F)cccc1Oc1ncc(Cl)cn1
100

State the recorded Pre-emergence efficacy against POLCO for this entry: C=CCS(=O)(=O)Oc1ccccc1Oc1ncc(Cl)cn1
90

State the recorded Pre-emergence efficacy against POLCO for this entry: COCCS(=O)(=O)Oc1c(F)cccc1Oc1ncc(Cl)cn1
100

State the recorded Pre-emergence efficacy against POLCO for this entry: O=S(=O)(CCCC(F)(F)F)Oc1c(F)cccc1Oc1ncc(F)cn1
100
